Target: human TRPV1 (Homo sapiens (Human), UniProt Q8NER1)
Sequence (Q8NER1 whole entry, looked up): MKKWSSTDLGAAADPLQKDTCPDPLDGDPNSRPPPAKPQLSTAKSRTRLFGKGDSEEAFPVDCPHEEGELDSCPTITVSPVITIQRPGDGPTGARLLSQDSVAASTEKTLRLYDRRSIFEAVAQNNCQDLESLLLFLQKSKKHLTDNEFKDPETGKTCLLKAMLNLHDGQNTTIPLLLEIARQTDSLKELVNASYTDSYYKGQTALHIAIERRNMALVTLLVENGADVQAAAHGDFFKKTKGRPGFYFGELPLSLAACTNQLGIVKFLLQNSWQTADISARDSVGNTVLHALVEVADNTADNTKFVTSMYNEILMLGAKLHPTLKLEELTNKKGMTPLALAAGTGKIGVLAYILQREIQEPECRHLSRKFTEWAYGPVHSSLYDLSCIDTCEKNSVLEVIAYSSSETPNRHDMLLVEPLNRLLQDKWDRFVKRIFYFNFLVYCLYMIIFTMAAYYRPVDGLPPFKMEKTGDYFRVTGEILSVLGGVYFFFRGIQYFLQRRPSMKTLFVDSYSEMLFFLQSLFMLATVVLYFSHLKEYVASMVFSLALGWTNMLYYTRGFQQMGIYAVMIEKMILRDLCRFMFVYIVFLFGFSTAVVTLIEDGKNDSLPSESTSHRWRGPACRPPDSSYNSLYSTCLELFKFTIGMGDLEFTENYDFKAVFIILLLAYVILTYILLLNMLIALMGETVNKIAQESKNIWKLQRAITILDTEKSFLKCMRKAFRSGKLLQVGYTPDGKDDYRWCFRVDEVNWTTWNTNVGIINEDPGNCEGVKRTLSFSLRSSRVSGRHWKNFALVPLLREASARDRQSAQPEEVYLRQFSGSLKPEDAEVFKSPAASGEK
Assay: Human TRPV1 heat-based assay, hTRPV1/CHO cells (hHeat-CHO)
Type: cell-based
Details: temperature ramp 25 to 45 °C, mean ± SEM
property_name: IC50 (nM)
Give the value, in units of nM, as a plain number.

INSERT INTO assay_data (compound, property_name, scale_unit, endpoint_result) VALUES
  ('C[C@@H]1CN(c2ncc([C@@H](O)CO)cc2F)CCN1C(=O)Nc1nc2ccccc2s1 [A122(e)]', 'IC50', 'nM', 96);

Pending compound:
Exercise: Item C[C@@H]1CN(C(=O)Nc2nc3cc(F)c(F)cc3s2)CCN1c1ncc([C@H](O)CO)cc1F [AE] has what recorded IC50?
Key: 102

====

# maps each entry to its solubility
Assay: Aqueous solubility at pH 1.2 and pH 6.8
Type: physicochemical
Settings: aqueous solution, pH 1.2; read-out: aqueous solubility at pH 1.2
Give the value, in units of µM, as a plain number.

INSERT INTO results (sample_smiles, endpoint_result) VALUES
  ('O=C(Nc1ccc(C(F)(F)F)c(F)c1)N1CCC(F)(c2ncccc2F)CC1', 10.3);

Exercise: Item O=C(Nc1ccc(C(F)(F)F)c(F)c1)N1CC=C(c2ncccc2Cl)CC1 has what recorded solubility?
Key: 39.6

Exercise: And what about the compound O=C(Nc1ccc(S(=O)(=O)C(F)(F)F)cc1)N1CCC(F)(c2ncccc2Cl)CC1 ?
Key: 2.0

Exercise: And what about the compound O=C(Nc1ccc(C(F)(F)F)c(F)c1)N1CCC(F)(c2ncccc2Cl)CC1 ?
Key: 9.3

Exercise: And what about the compound O=C(Nc1ccc(OC(F)(F)F)cc1)N1CCC(F)(c2ncccc2Cl)CC1 ?
Key: 1.3

Exercise: And what about the compound O=C(Nc1ccc(C(F)(F)F)c(Cl)c1)N1CC=C(c2ncccc2F)CC1 ?
Key: 9.6

====

# maps each entry to its solubility
Assay: Aqueous solubility at pH 1.2 and pH 6.8
Assay type: physicochemical
Details: aqueous solution, pH 6.8, aqueous buffer; read-out: aqueous solubility at pH 6.8
Give the value, in units of µM, as a plain number.

// below: answered molecules
INSERT INTO results (molecule, endpoint_result) VALUES
  ('C[C@H]1CN(c2ncc([C@H](O)CO)cc2F)CCN1C(=O)Nc1nc2cc(F)c(F)cc2s1', 5),
  ('Cc1ccc2nc(NC(=O)N3CCN(c4ncc([C@H](O)[C@H](C)O)cc4F)CC3)sc2c1 [C126(r)]', 4),
  ('C[C@H]1CN(c2ncc([C@H](O)CO)cc2F)CCN1C(=O)Nc1nc2cc(F)ccc2s1', 17),
  ('C[C@@H]1CN(c2ncc([C@@H](O)CO)cc2F)CCN1C(=O)Nc1nc2cc(F)ccc2s1 [A155(e)]', 5),
  ('Cc1ccc2nc(NC(=O)N3CCN(c4ncc([C@H](O)CO)cc4F)C[C@@H]3C)sc2c1', 14),
  ('C[C@H]1CN(c2ncc([C@@H](O)CO)cc2F)CCN1C(=O)Nc1nc2cc(F)ccc2s1', 4);

Pending molecule:
Exercise: Item C[C@H](O)[C@@H](O)c1cnc(N2CCN(C(=O)Nc3nc4ccc(F)cc4s3)CC2)c(F)c1 [C125(r)] has what recorded solubility?
Key: 3

====

Molecular target: human TRPV1 (Homo sapiens (Human))
Assay: Capsaicin-based assay, Protocol 2, TRPV1/CHO cells (hCAP-CHO), Fluo-4 FLIPR
Format: cell-based
Conditions: 100 nM capsaicin, mean ± SEM
property_name: IC50 (nM)
Give the value, in units of nM, as a plain number.

INSERT INTO measurements (compound, endpoint_result) VALUES
  ('C[C@@H]1CN(c2ncc([C@@H](O)CO)cc2F)CCN1C(=O)Nc1nc2ccc(Cl)cc2s1 [A123(e)]', 11.5),
  ('C[C@@H]1CN(c2ncc([C@@H](O)CO)cc2F)CCN1C(=O)Nc1nc2ccccc2s1 [A122(e)]', 80.6);

Exercise: Item C[C@H](O)[C@@H](O)c1cnc(N2CCN(C(=O)Nc3nc4ccccc4s3)C[C@@H]2C)c(F)c1 has what recorded IC50?
Key: 502

Exercise: And what about the compound C[C@H]1CN(c2ncc([C@H](O)CO)cc2F)CCN1C(=O)Nc1nc2cc(F)c(F)cc2s1 ?
Key: 62.4

====

Test: In vivo assay of body temperature increase (rectal body temperature)
Set-up: species or system rat
Conditions: rats, oral, 10 mL/kg of 1 mg/mL in 0.5% methylcellulose; greatest ΔTb versus vehicle control at 0.5, 1 or 2 hrs
property_name: ΔTb, body temperature increase (°C)
Give the value, in units of °C, as a plain number.

// below: answered compounds
INSERT INTO assay_data (compound, scale_unit, endpoint_result) VALUES
  ('O=C(Nc1nc2ccc(F)cc2s1)N1CCN(c2ncc([C@H](O)CO)cc2Cl)CC1', '°C', 1.0),
  ('Cc1ccc2nc(NC(=O)N3CCN(c4ncc([C@H](O)[C@H](C)O)cc4F)CC3)sc2c1 [C126(r)]', '°C', 0.4);

Exercise: Item C[C@H]1CN(c2ncc([C@H](O)CO)cc2F)CCN1C(=O)Nc1nc2ccc(Cl)cc2s1 has what recorded ΔTb, body temperature increase?
Key: 0.6

Exercise: And what about the compound C[C@@H]1CN(c2ncc([C@H](O)CO)cc2C(F)(F)F)CCN1C(=O)Nc1nc2ccc(F)cc2s1 ?
Key: 0.8

Exercise: And what about the compound O=C(Nc1nc2ccc(F)cc2s1)N1CCN(c2ncc([C@H](O)CO)cc2C(F)(F)F)CC1 ?
Key: 0.9

Exercise: And what about the compound C[C@H]1CN(c2ncc([C@H](O)CO)cc2F)CCN1C(=O)Nc1nc2cc(F)ccc2s1 ?
Key: 0.2

Exercise: And what about the compound C[C@H](O)[C@@H](O)c1cnc(N2CCN(C(=O)Nc3nc4ccc(F)cc4s3)CC2)c(F)c1 [C125(r)] ?
Key: 0.3

Exercise: And what about the compound COc1ccc2nc(NC(=O)N3CCN(c4ncc([C@H](O)CO)cc4F)C[C@H]3C)sc2c1 ?
Key: 1.1

====

# maps each entry to its pIC50
Target: human TRPV1 (Homo sapiens (Human))
Experiment: pH-based assay, Protocol 2, TRPV1/CHO cells (hpH-CHO), Fura-2 Ca2+ influx
Format: cell-based
Details: pH 5.0-5.1 (H2SO4), mean ± SEM
API: returns pIC50 as number; meaning -log10 of concentration in mol/L.

Exercise: Item C[C@@H]1CN(C(=O)Nc2nc3cc(F)ccc3s2)CCN1c1ncc([C@@H](O)[C@@H](C)O)cc1F [B155(o)] has what recorded pIC50?
Key: 5.91

Exercise: And what about the molecule C[C@H](O)[C@@H](O)c1cnc(N2CCN(C(=O)Nc3nc4ccc(F)cc4s3)C[C@H]2C)c(F)c1 [B125(j)] ?
Key: 6.52

Exercise: And what about the molecule C[C@@H]1CN(C(=O)Nc2nc3cc(F)c(F)cc3s2)CCN1c1ncc([C@@H](O)[C@@H](C)O)cc1F [B158(o)] ?
Key: 6.77

Exercise: And what about the molecule C[C@@H](O)[C@H](O)c1cnc(N2CCN(C(=O)Nc3nc4ccc(F)cc4s3)C[C@@H]2C)c(F)c1 [B125(p)] ?
Key: 6.68

====

Assay: In vivo assay of body temperature increase (rectal body temperature)
Set-up: species or system rat
Conditions: rats, oral, 10 mL/kg of 1 mg/mL in 0.5% methylcellulose; greatest ΔTb versus vehicle control at 0.5, 1 or 2 hrs
Cut-off 0.2 °C on ΔTb, body temperature increase: below means satisfied, at or above means not satisfied.

As a guide, the following entries are already answered.
INSERT INTO measurements (molecule, category_label) VALUES
  ('C[C@H]1CN(C(=O)Nc2nc3ccc(F)cc3s2)CCN1c1ncc([C@H](O)CO)cc1F', 'not satisfied'),
  ('C[C@@H]1CN(c2ncc([C@@H](O)CO)cc2F)CCN1C(=O)Nc1nc2cc(F)ccc2s1 [A155(e)]', 'satisfied'),
  ('Cc1cc2nc(NC(=O)N3CCN(c4ncc([C@H](O)CO)cc4F)C[C@H]3C)sc2cc1C', 'not satisfied'),
  ('C[C@H]1CN(c2ncc([C@H](O)CO)cc2F)CCN1C(=O)Nc1nc2cc(F)c(F)cc2s1', 'not satisfied'),
  ('C[C@H]1CN(c2ncc([C@H](O)CO)cc2F)CCN1C(=O)Nc1nc2ccccc2s1', 'not satisfied');

Exercise: Item COc1ccc2nc(NC(=O)N3CCN(c4ncc([C@H](O)CO)cc4Cl)CC3)sc2c1 : ΔTb, body temperature increase beneath 0.2 °C, strictly?
Key: not satisfied

====

Experiment: In vivo assay of body temperature increase (rectal body temperature)
Design: species or system rat
Details: rats, oral, 10 mL/kg of 1 mg/mL in 0.5% methylcellulose; greatest ΔTb versus vehicle control at 0.5, 1 or 2 hrs
property_name: ΔTb, body temperature increase (°C)
Give the value, in units of °C, as a plain number.

// below: answered compounds
INSERT INTO measurements (compound, property_name, scale_unit, endpoint_result) VALUES
  ('C[C@@H]1CN(c2ncc([C@H](O)CO)cc2F)CCN1C(=O)Nc1nc2cc(F)ccc2s1 [DK]', 'ΔTb, body temperature increase', '°C', 0.7),
  ('C[C@@H]1CN(c2ncc([C@H](O)CO)cc2Cl)CCN1C(=O)Nc1nc2ccccc2s1 [DA]', 'ΔTb, body temperature increase', '°C', 0.9);

Pending compound:
Exercise: Item C[C@H](O)[C@@H](O)c1cnc(N2CCN(C(=O)Nc3nc4ccc(F)cc4s3)[C@H](C)C2)c(F)c1 [BC] has what recorded ΔTb, body temperature increase?
Key: 0.7
